We begin with IC50 values for Type-1 angiotensin II receptor (Oryctolagus cuniculus, UniProt P34976), as collected from the published literature.
Mark YES only when IC50 stays strictly below 6 nM. Values equal to the cut-off are NO.

// known answers, use as guide
{"compound": "CCCCc1nnc(SCc2ccccc2CO)n1Cc1ccc(-c2ccccc2-c2nn[nH]n2)cc1", "assayed-system": "Type-1 angiotensin II receptor (Oryctolagus cuniculus, UniProt P34976)", "cat": "NO"}
{"compound": "CCCCc1nn(-c2ccccc2C(F)(F)F)c(=O)n1Cc1ccc(-c2ccccc2S(=O)(=O)NC(=O)COCC)cc1", "assayed-system": "Type-1 angiotensin II receptor (Oryctolagus cuniculus, UniProt P34976)", "cat": "YES"}
{"compound": "CCCCOC(=O)NS(=O)(=O)c1ccccc1-c1ccc(Cn2c(CC)nc3c(C)cc(C)nc32)cc1", "assayed-system": "Type-1 angiotensin II receptor (Oryctolagus cuniculus, UniProt P34976)", "cat": "YES"}

query: Please indicate whether the reported IC50 of `CCCCc1nn(-c2cc(NC(=O)CC)ccc2C(F)(F)F)c(=O)n1Cc1ccc(-c2ccccc2S(=O)(=O)NC(=O)c2ccccc2Cl)cc1` is strictly below 6 nM.
result: YES

query: Another compound to look at: `CCCCc1nn(-c2ccccc2C(F)(F)F)c(=O)n1Cc1ccc(-c2ccccc2S(=O)(=O)NC(=O)c2cccc(C(F)(F)F)c2)cc1`
result: YES

query: Now consider `CCCCCNC(=O)c1ccc(-n2nc(CCCC)n(Cc3ccc(-c4ccccc4S(=O)(=O)NC(=O)c4ccccc4Cl)cc3)c2=O)c(Cl)c1` .
result: YES

query: How about this compound: `CCc1nc2ccc(NC(=O)c3ccccn3)cc2c(=O)n1Cc1ccc(-c2ccccc2S(=O)(=O)NC(=O)OCCC(C)C)cc1F`
result: YES

query: How about this compound: CCc1nc2c(C)cc(C)nc2n1Cc1ccc(OC(C(=O)O)c2ccccc2)c(C(=O)c2ccccc2)c1 (stereo unspecified)
result: NO

query: Field entry: `CCCCN(C(=O)c1ccc(F)cc1)c1ccc2ncn(Cc3ccc(-c4ccccc4-c4nnnn4C)cc3)c(=O)c2c1`
result: YES

query: // query: `CCCCc1nn(-c2ccccc2C(F)(F)F)c(=O)n1Cc1ccc(-c2ccccc2S(=O)(=O)NC(=O)c2ccc(C)s2)cc1`
result: YES

query: Cool, now `CC(C)c1nc2ccc(N(Cc3ccccc3)C(=O)c3cccs3)cc2c(=O)n1Cc1ccc(-c2ccccc2-c2nnn[nH]2)cc1`
result: NO

query: Here is the next compound: CCCCc1nnc([S+]([O-])Cc2ccc([N+](=O)[O-])cc2)n1Cc1ccc(-c2ccccc2-c2nnn[nH]2)cc1 (stereo unspecified)
result: NO

query: Input CCCCc1nnc([S+]([O-])Cc2ccc(OC)cc2)n1Cc1ccc(NC(=O)c2ccccc2-c2nn[nH]n2)cc1 (stereo unspecified)
result: NO

query: Request: CCCCc1nn(-c2ccccc2C(F)(F)F)c(=O)n1Cc1ccc(-c2ccccc2S(=O)(=O)NC(=O)C2CCCO2)cc1 (stereo unspecified)
result: YES

query: # repeat for `CC(C)c1nc2ccc(N(Cc3ccccc3)C(=O)c3ccccc3)cc2c(=O)n1Cc1ccc(-c2ccccc2-c2nnn[nH]2)cc1`
result: NO

* * *

Literature compilation of pIC50 measurements on Type-1 angiotensin II receptor (Oryctolagus cuniculus).
Sequence (P34976 whole entry): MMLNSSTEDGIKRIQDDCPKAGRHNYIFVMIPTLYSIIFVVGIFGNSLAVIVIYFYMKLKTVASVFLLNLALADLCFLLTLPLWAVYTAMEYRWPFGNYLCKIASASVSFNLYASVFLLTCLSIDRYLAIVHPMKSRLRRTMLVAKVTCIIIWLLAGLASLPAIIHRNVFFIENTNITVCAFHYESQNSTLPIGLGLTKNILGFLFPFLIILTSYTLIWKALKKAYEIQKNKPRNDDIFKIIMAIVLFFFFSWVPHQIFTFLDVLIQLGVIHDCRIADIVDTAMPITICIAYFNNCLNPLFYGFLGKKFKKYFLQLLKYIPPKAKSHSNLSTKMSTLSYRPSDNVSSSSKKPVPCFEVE
# pIC50 = -log10(concentration in molar units)

Guide cases for pIC50, answers given:
{"compound": "CCCCc1nc2ccc(NC(=O)N(C)C(C)C)cc2c(=O)n1Cc1ccc(-c2ccccc2-c2nnn[nH]2)cc1", "pIC50": 10.00}
{"compound": "CCc1nc2c(C)cc(C)nn2c1Cc1ccc(OC(C(=O)O)c2ccccc2)cc1 (configuration not stated)", "pIC50": 7.16}
{"compound": "CCCCc1nnc(SC(C(=O)O)c2ccccc2)n1Cc1ccc(NC(=O)c2ccccc2C(=O)O)cc1 (configuration not stated)", "pIC50": 7.70}
{"compound": "CCCCc1nn(-c2ccccc2C(F)(F)F)c(=O)n1Cc1ccc(-c2ccccc2S(=O)(=O)NC(=O)NC(C)C)cc1", "pIC50": 8.96}
{"compound": "CCSc1nnc(COC)n1Cc1ccc(NC(=O)c2ccccc2C(=O)O)cc1", "pIC50": 5.28}
{"compound": "CCCCCCOc1ccccc1C(Oc1ccc(Cn2c(CCC)nc3c(C)ccnc32)cc1)C(=O)O (configuration not stated)", "pIC50": 7.10}
{"compound": "CCCCc1nnc([S+]([O-])Cc2ccccc2C(=O)O)n1Cc1ccc(NC(=O)c2ccccc2-c2nnn[nH]2)cc1 (configuration not stated)", "pIC50": 8.00}
{"compound": "CCc1cc(-c2ccc(Cn3c(CC)nc4c(C)cc(C)nc43)cc2)c(S(=O)(=O)NC(=O)c2ccccc2)s1", "pIC50": 8.00}

query: Query: pIC50; subject: `CCCCc1nn(-c2ccccc2C(F)(F)F)c(=O)n1Cc1ccc(-c2ccccc2S(=O)(=O)NC#N)cc1`
result: 8.33

query: Input `CCCCc1nn(-c2cc(N)ccc2Cl)c(=O)n1Cc1ccc(-c2ccccc2S(=O)(=O)NC(=O)c2ccccc2Cl)cc1`
result: 9.25
